Where these numbers come from: ChEMBL document CHEMBL1141811

System: MDA-MB-435
assay.details: Cytotoxicity against human MDA-MB-435 cells by SRB assay
Assay type: functional, cell-based

[
  {
    "smiles.repr": "CC1=C2CC[C@]3(C)[C@H](CC=C4[C@@H]5CC(C)(C)CC[C@@H]5C(=O)[C@H](O)[C@]43C)[C@@]2(C)C=C(O)C1=O",
    "IC50": "8.5 µM"
  }
]
